Cited source: ChEMBL document CHEMBL1201862

test system: CCRF-CEM; test: NCI tumour cell line growth inhibition, 48 h
The source made the active and inactive calls. No stated cut-off is given here; in the data, active = GI50 up to about 1.1 µM and inactive = higher.
Choose the fitting class; nothing outside 1 (active), 0 (inactive) is accepted.

**Query** For this compound, state the assay outcome: CCN(CC)CCNc1ccc([N+](=O)[O-])c2nc3ccc(OC)cc3c(N)c12
**Result** 1

**Query** For this compound, state the assay outcome: c1ccc(-c2nnc3nn4c(-c5ccccc5)cnnc4c3c2-c2ccccc2)cc1
**Result** 0

**Query** For this compound, state the assay outcome: CCCCCC(/C=C/[C@@H]1[C@@H](C(O)CCCCCC(=O)OC)C(=O)C[C@H]1O[Si](C)(C)C(C)(C)C)OCOCCOC (stereo not given in full)
**Result** 0

**Query** For this compound, state the assay outcome: CC(=O)Oc1ccc(C2SCc3nc4ccccc4n32)cc1 (stereo not given)
**Result** 0

**Query** For this compound, state the assay outcome: CC1(C)Cc2c(cnn2-c2ccc(C(F)(F)F)cc2)-c2[nH]c(-c3ccc(O)cc3)nc21
**Result** 0

**Query** For this compound, state the assay outcome: COc1cc(Cn2c3c(c4c(C(=O)NCCN(C)C)c(O)ccc42)C(=O)c2ccccc2C3=O)cc(OC)c1
**Result** 1

**Query** For this compound, state the assay outcome: COCn1cc(C2=C(C)C(=O)C(C)=C(C)C2=O)cn1
**Result** 0

**Query** For this compound, state the assay outcome: Cc1cc(S(N)(=O)=O)c(S/C(=N\Nc2ccc([N+](=O)[O-])cc2)c2ccc(Cl)cc2)cc1Cl
**Result** 0

**Query** For this compound, state the assay outcome: COC1CC(OC2C(C)OC(OC3C(C)OC(OC4C(C)OC(O[C@H]5CC[C@@]6(C)C(=CC[C@]7(O)[C@@H]6C[C@@H](OC(C)=O)[C@@]6(C)[C@]7(O)CC[C@@]6(O)C(C)=O)C5)CC4OC)CC3OC)CC2OC)OC(C)C1O (stereo not given in full)
**Result** 0

**Query** For this compound, state the assay outcome: COCO[C@@H]1C[C@H]2C(O)Nc3ccccc3C(=O)N2C1 (stereo not given in full)
**Result** 0

**Query** For this compound, state the assay outcome: COc1cc(C2[C@H]3C(=O)N(c4ccc(Cc5ccc(N6C(=O)[C@@H]7ON(c8ccccc8)C(c8cc(OC)c(OC)c(OC)c8)[C@@H]7C6=O)cc5)cc4)C(=O)[C@H]3ON2c2ccccc2)cc(OC)c1OC (stereo not given in full)
**Result** 0

**Query** For this compound, state the assay outcome: C/C1=C\[C@@H](C)C[C@@H](C)OC(=O)[C@@H](C)NC(=O)[C@H](Cc2ccc(O)c(Br)c2)N(C)C(=O)CNC(=O)[C@H](C)C1
**Result** 1

**Query** For this compound, state the assay outcome: COC[C@@H](/N=C/N1CCc2cc(OC)c(OC)cc2C1)C(C)(C)C
**Result** 0

**Query** For this compound, state the assay outcome: CSc1ccc2c(cc1=O)C(NC(=O)c1ccc(C#N)cc1)CCc1cc(O)c(O)c(O)c1-2 (stereo not given)
**Result** 0

**Query** For this compound, state the assay outcome: Cc1ccccc1C(=O)Oc1ccc(Oc2ccccc2)cc1
**Result** 0

**Query** For this compound, state the assay outcome: COc1ccccc1N1C(=O)/C(=C\c2cccc(Oc3ccccc3)c2)S(=O)(=O)C1c1ccccc1 (stereo not given)
**Result** 0

**Query** For this compound, state the assay outcome: CC(=O)Nc1ccccc1-c1nc2ccccc2nc1C
**Result** 0

**Query** For this compound, state the assay outcome: CCOc1cc(C2CC(c3ccc(NS(=O)(=O)c4cc([N+](=O)[O-])ccc4C)cc3)=NN2c2ccc([N+](=O)[O-])cc2[N+](=O)[O-])ccc1O (stereo not given)
**Result** 0

**Query** For this compound, state the assay outcome: C=CCc1c(O)c2nsnc2c2nsnc12
**Result** 0

**Query** For this compound, state the assay outcome: COc1ccc2cc(CNCCCCCCCCCCCCNCc3ccc4cc(OC)ccc4c3)ccc2c1
**Result** 0

**Query** For this compound, state the assay outcome: COc1ccc(C(c2ccccc2)N2C(=O)CCC2C(=O)O)cc1OC (stereo not given)
**Result** 0

**Query** For this compound, state the assay outcome: CN1CC(c2ccccc2)N(CCCCN2CC(c3ccccc3)N(C)CC2c2ccccc2)CC1c1ccccc1 (stereo not given)
**Result** 0

**Query** For this compound, state the assay outcome: FC(F)(F)c1ccc(/N=C/C=C(/Nc2ccc(C(F)(F)F)cc2)c2ccc(Cl)cc2)cc1
**Result** 0

**Query** For this compound, state the assay outcome: O=C1Cc2c([nH]c3ccc(Br)cc23)-c2ccccc2N1 [KENPAULLONE]
**Result** 0

**Query** For this compound, state the assay outcome: O=C1Nc2ccccc2/C1=C\c1c(Cl)nc2n1CCS2
**Result** 0
